Conditions: in acetone, 285.65 K
Measurement label: solubility (mole fraction)
Answer using only a numeral; do not append any unit.

Entry "O=[N+]([O-])c1cccc2cccc([N+](=O)[O-])c12" , solubility (mole fraction) reported as 0.0152

----------
Conditions: in n-butanol, 283.15 K
Measurement label: solubility (mole fraction)
Answer as a number with no unit attached.

Query "O=[N+]([O-])c1cccc2cccc([N+](=O)[O-])c12" yields solubility (mole fraction) of 0.000272

----------
Details: in isopropanol, 283.15 K
Measurement label: solubility (mole fraction)
When you answer, write just the number.

Briefly, solubility (mole fraction) measured for "O=[N+]([O-])c1cccc2cccc([N+](=O)[O-])c12" : 0.000173
